test system: IFNγ-induced NO production in RAW 264.7 cells; assay: Nitric oxide suppression assay (IFNγ-induced NO production, Griess nitrite readout); type: cell-based, mouse
Marks after values point to notes of the source that are not given here.
Overview of recorded NO IC50 Rel. to RTA 402 for various compounds

These recorded examples may help you get a feel for the data.
{"compound": "CC1(C)CC[C@]2(N3CCC(=O)N3)CC[C@]3(C)[C@H](C(=O)C=C4[C@@]5(C)C=C(C#N)C(=O)C(C)(C)[C@@H]5CC[C@]43C)[C@@H]2C1 [Compound T58]", "NO IC50 Rel. to RTA 402": "2.97 ± 0.65^d fold"}
{"compound": "CC1(C)CC[C@]2(CN3CCOC3=O)CC[C@]3(C)[C@H](C(=O)C=C4[C@@]5(C)C=C(C#N)C(=O)C(C)(C)[C@@H]5CC[C@]43C)[C@@H]2C1 [Compound T13]", "NO IC50 Rel. to RTA 402": "0.65 ± 0.21^e fold"}

Give the value of NO IC50 Rel. to RTA 402 reported for the following: Cn1ccn([C@]23CCC(C)(C)C[C@H]2[C@H]2C(=O)C=C4[C@@]5(C)C=C(C#N)C(=O)C(C)(C)[C@@H]5CC[C@@]4(C)[C@]2(C)CC3)c1=O [Compound T46]
2.62 ± 0.10^d fold
